# Measurement protocol: folding stability dG unfold from chymotrypsin proteolysis; higher = more stable
Tag: 1 if measured folding stability dG unfold is not below 2 kcal/mol, -1 if it is.

macromolecule_sequence="SAGGPETRTFTIPAAPATVTVTLEKVGDGYRVSLTLTNPDGQTVEVPPDQPVVIPAGASVGAALAPESAGGS [r16_669_TrMRF]" assigned_label=-1
macromolecule_sequence="SAGGSEVETVKVKIKVKIDGKVYEVEAEVEVFTDEDGRKVLRITLPDGRVVEIPLEDADKIEEIEVSAGGSA [r2_297_TrROS_Hall]" assigned_label=1
macromolecule_sequence="SAGKIEILDEKPYKDSITVVAKLPGTDEIIVLTYNPKTKTVEIKIFPPKGVKTIPVKAKDIEKALKEIASAG [r5_769_TrMRF]" assigned_label=1
macromolecule_sequence="SAGGSAGGIYIFFPPEDLEPIAPFTITIEVKRRDPDGDEPQPRKQTIPIRIYRAPNNNLMIEPGSAGGSAGG [r6_278_TrROS]" assigned_label=-1
macromolecule_sequence="SEPVPVKIEISTSVDSNGNPSVTITVYNEEKVYTNPLNGATILSVDPNKQYIVIENPALGTKLTLSYTLISA [r9_1186_JUSTAS]" assigned_label=1
macromolecule_sequence="SAGGSAKVKIEVIELPPGMTEEELRKLAEEKGLKVEKVDKENLLVKITAKSKEEAEKIKKELEEKLSAGGSA [r15_546_TrROS_Hall]" assigned_label=-1
macromolecule_sequence="SAGMLKVKIKIEIEKDGKKIELEKEIEAESEEELLKAAEELAKELEKKGIKIKKIEVEVEKIPEPEEEESAG [r5_660_TrROS_Hall]" assigned_label=1
macromolecule_sequence="SAGGSAGGSPYLVTVTLPDGSTLTHTIPVPPDVPLSEEEIRERIRREYPGPPLGPITIERPTESAGGSAGGS [r12_262_JUSTAS]" assigned_label=-1
macromolecule_sequence="SKPITADEIAKHFPGIKDVEPTPNKKRLDFDNPNGHKPTIEVSPDGTIMIEHQNPDNGQKQEQEIPIDDLSA [r9_427_TrROS]" assigned_label=-1
macromolecule_sequence="SAGGSAIIVIEIEMGGKPVPIMIPIPPNMPPEDAREEIKELAKQEVRDPDGKPVRVKIEVIPPPPESAGGSA [r15_246_TrROS]" assigned_label=-1
macromolecule_sequence="SAGGSAGGSAGGKIKLTVTVDADGNATVTLEIEVESPEDKPFTIRLTLTFPLKDGESLTSAGGSAGGSAGGS [r10_763_TrMRF]" assigned_label=1
macromolecule_sequence="SAGGSAMTVTTLPDGSTVIHLPSGTTITITTAPDGTKPITITPPDGVPTTFPASVSLEDAIKAALSSAGGSA [r15_371_JUSTAS]" assigned_label=1
macromolecule_sequence="SAGGSAGGSAGGLWLTFNFRLTFFNPDGQAMEIEIPIEIRIPPPPVTVPDPDGEEYKYDSAGGSAGGSAGGS [r10_330_TrROS]" assigned_label=1
macromolecule_sequence="AAPEGAVVTFDDKEITVAPDETLYLVNGKLYTKSEIPAVLKQLSPETEYTELTVAGDTGEVETETKHIYRPS [r1_304_JUSTAS]" assigned_label=-1
macromolecule_sequence="SAGGSAGGSAGGKPKLIVRVKIKNENGEEIEIEIEVETLDEAKEAAKKLGFEIVEVEVLSAGGSAGGSAGGS [r10_882_TrROS_Hall]" assigned_label=1
macromolecule_sequence="SAGMVTTTTVTFPNGATMTVTTHSSGIITIEATSEEDARAFLEAQGLPLTSREVLPDGTYRFTAVVPPSAGG [r19_257_JUSTAS]" assigned_label=1
macromolecule_sequence="SAGGSAGGKTIVIDMSIEEIAKKLGLEIVEVKKNKDGSVTITLKNGKKITIKVKSPEDLLKAIKSAGGSAGG [r6_13_TrROS_Hall]" assigned_label=1
macromolecule_sequence="SAGGSAGGSAGHIPIIFQFEFEHYDPDDGKPKEHRWVIVIEFDGNGIKNIRIIPKEDAKKLLSAGGSAGGSA [r18_406_TrROS]" assigned_label=1
macromolecule_sequence="SAGGMTIVSSGPSIEQALQEAAEAGGDATVIYKEPESNTIITLDVKYDPAPRTITVLSETETPVPPLLSAGG [r13_309_JUSTAS]" assigned_label=-1
macromolecule_sequence="SAGGMLTLEEIKKAKPGEKLEIEVDGKIYLVEIKKNENGELTLTVKKVDKETGEIVEEKTISLEELLSAGGS [r16_763_TrROS_Hall]" assigned_label=1
macromolecule_sequence="SAGGSAGGSAGGSSSVSVDTDPETGLITVTTYSSSGGVTVTLYEKPPDGSLTPVSTTAVSAGGSAGGSAGGS [r4_106_JUSTAS]" assigned_label=-1
macromolecule_sequence="SPSRPTLVTTYTFDPSGVPTATTKEITPEEVEELEKKGWKKLSEDPEKGLITLEKKLPTSPQKIEVTILPSA [r9_5_JUSTAS]" assigned_label=-1
macromolecule_sequence="SAGGMTLDQLKENIKSVEVYPHPDGGYRMRVQIPQPNPDGKPKPREFNIPMPPNDPNMSADNVIDQILSAGG [r13_319_TrROS]" assigned_label=-1
macromolecule_sequence="SAGGSAGGSAGGGKLAIRVEIEPVRTETRLRADGSLETRTEFRVRIEIRPVGNPDDPRNNSAGGSAGGSAGG [r7_523_TrMRF]" assigned_label=1
macromolecule_sequence="SAGGSPEVKIEIEVTERVTVFDENGKPVEEVLVVKAKITFPDGTTATITAFFYEGKWFITSIELEPSAGGSA [r2_158_TrROS_Hall]" assigned_label=1
macromolecule_sequence="SAGGEKPKEVEIEEVVVKNEETGEEVRFFRIRDKETDEWYVLAVVRNKDGEEKVVKMSAEEAKKLLESAGGS [r8_421_TrROS_Hall]" assigned_label=1
macromolecule_sequence="SAGGSAGGSAGGSMKIVEVELIEYDEETKEFVYVFRVRLEDGSERLIVITPDGEMRVVPSAGGSAGGSAGGS [r4_35_TrROS_Hall]" assigned_label=1

---

# Measurement protocol: folding stability dG unfold (combined trypsin and chymotrypsin); higher = more stable
Outcome measure: folding stability dG unfold (kcal/mol)

macromolecule_sequence="SAGGSAGGSAGKPKTVEIEVTNEDGSKYKAKVVEVDEEKGYVLIKITNPDGSEQTILIKLSAGGSAGGSAGG [r11_742_TrROS_Hall]" measurement_units=kcal/mol observed=2.6
macromolecule_sequence="SAMTTTTSVDPASGSSTVTTTEIIEKPAGKLPNGTKLPPVKVKKTTTTTYAPNGTKLSTTTTTTPVPLGSAG [r14_246_JUSTAS]" measurement_units=kcal/mol observed=0.874
macromolecule_sequence="SAGGSAGGSAGSIVLTKTEILPGPENRPIIKTTIYKPPGPITITYPGGDPSKLVIETNSGSAGGSAGGSAGG [r17_64_JUSTAS]" measurement_units=kcal/mol observed=0.0213
macromolecule_sequence="SMKIKIEKVEDGYYKIKIYDKKTKKEYTIIVPKNMKPGQVELVNRNGKKITMTLEEIKKLLPPGAEVEIVSA [r9_250_TrROS_Hall]" measurement_units=kcal/mol observed=2.21
macromolecule_sequence="SAGGSAGGANTVTIELPNGFRITLNDDGTITISYYDPETGELVKTVTIKLPPPPPVVVVHEDDKSAGGSAGG [r6_572_TrROS_Hall]" measurement_units=kcal/mol observed=3.35
macromolecule_sequence="SAGGANIHVRMENPGDGKPMSFMIPVKEVREAKQEGKDEIKIPFGGGPMKVEIEPLPDGWVHIRMRMPSAGG [r13_171_TrROS]" measurement_units=kcal/mol observed=0.201
macromolecule_sequence="SMKIEVEKLEDGTYVITIEDPGEDDIPVTYKAVVFVDPETGKVYVDRNIEDPNVPPELKELFENFIPGIESA [r9_715_TrMRF]" measurement_units=kcal/mol observed=2.92

---

# Measurement protocol: folding stability dG unfold from trypsin proteolysis; higher = more stable
Reported folding stability dG unfold values follow for various sequences
Outcome measure: folding stability dG unfold

macromolecule_sequence="SAGGMPVRVLITYESGEIPVTIPVDPNKVVEAEVELEDKTVKITVDPKAKTIKVDAPPSFKFEVLDPSAGGS [r16_761_JUSTAS]" observed="1.47 kJ/mol"
macromolecule_sequence="SAGGSAGGEIPPNIKKIETLPDDGWLMVKVDSPKDIREFFEDHGWEIKDVEEEGNTIHIPIKPKSAGGSAGG [r6_381_TrROS]" observed="2.71 kJ/mol"
macromolecule_sequence="SAGGSAGGSAGGQLKLKLKVKVTTRVRDPATGKTYTVTEEVEVTVELEFPPPPLPPGFKSAGGSAGGSAGGS [r10_1026_TrROS_Hall]" observed="11.3 kJ/mol"
macromolecule_sequence="SAGGSAGGSEFYVIKIKNPETKKEIELVFEGSEEEIKAAIEELAKKPNLKIEIKKIKVSKEELSAGGSAGGS [r12_92_TrROS_Hall]" observed="6 kJ/mol"
macromolecule_sequence="SAGGSAGGSNLEEFLAKLPPDVEVVVDPETGTVLVRFPKTGTVAVFRVDAAEGKVELVEVKPVSAGGSAGGS [r12_82_TrMRF]" observed="16.2 kJ/mol"
macromolecule_sequence="SAGGSAGGSAGGVPEEEIRERVEAAGLTAPDAEVVYETPENITVRVTVPPTGLVFERLESAGGSAGGSAGGS [r10_604_JUSTAS]" observed="0.374 kJ/mol"
macromolecule_sequence="SAGGSAGGKEVYKIKVKNAEIVDFDEETGELTIKLKETGKEIKIPLKAIKKIEITDDYIYIYVESAGGSAGG [r6_313_TrROS_Hall]" observed="15.2 kJ/mol"
macromolecule_sequence="GMMPEVKEYEVVVEVSLSDPSFASMTPEELAERAVAEVAAKPDFDPVEVEILSVKELPDGTYVVKVRITVRS [r1_484_JUSTAS]" observed="18.8 kJ/mol"
macromolecule_sequence="SAGDNLKIDVEVEPAKVILGEFDENGKLIKPIEKDVLIVKVTVTFSNGKKLEIRATFFDGKLISVSSGSAGG [r19_44_TrMRF]" observed="14.9 kJ/mol"
macromolecule_sequence="SAGGPVVLKIEIEQKTDGKPQERELVIPVKWDPNGQVDADEIKDWVEEALPPGYKIEDIDVVPPGQPFSAGG [r13_504_TrROS]" observed="-2.49 kJ/mol"
macromolecule_sequence="SASPSETTTYTVELTSTDPSLTPEDLAERAREEFEAALPPGTRVEVEVVSVTPIPETGTTRYTIRITVRRSA [r9_706_JUSTAS]" observed="21.7 kJ/mol"
macromolecule_sequence="SAGGNIQIHYNPDWGVIRITYMFPSPTEAEDFIKKLLPPGYKIEPIEVERNPDGYYQVSIEIRLPKGASAGG [r13_338_TrROS]" observed="11.8 kJ/mol"
macromolecule_sequence="SAGGSAGGAVVKLPGNTVMTIDPSTGIAYVTDPSGKVTKYTLTKFPDKTLWEEEPVEEIPSDLLSAGGSAGG [r6_324_JUSTAS]" observed="6.38 kJ/mol"
macromolecule_sequence="SAGGKKKKIEIEIVVKKEDLEKIAEELAKKLEEAGYKVKIKKIEVEVYKNKDGKIVYVKVRIEVEVEPSAGG [r13_707_TrROS_Hall]" observed="12.7 kJ/mol"
macromolecule_sequence="SAGGSAGGSAGPDKPIYVMIKFEHPGRKYTHSFEFDSPEDIEEVLDRLPPGYEIKEVEIFSAGGSAGGSAGG [r17_410_TrROS]" observed="0.0923 kJ/mol"
macromolecule_sequence="SAGMMTIEIELKNGKKIKIEVEKKNGKYIIKITVYDKNGKKVKEVKIEVPKKNMSLEEIIKEALKKLLKSAG [r5_630_TrROS_Hall]" observed="11.8 kJ/mol"
macromolecule_sequence="SAGELTAEEIAERLRKLLEELGIEEVEVEVEEVEVEEEEEPVEEEEEEELSEEERERLRRERLEEEGLLSAG [r5_9_TrROS_Hall]" observed="6.67 kJ/mol"
macromolecule_sequence="SAGGSASSMLSPSLYVTTITVKKPGGMTVTETVPGTPEEVERLIEELKKKGLEVEKVDVVPVSELVSAGGSA [r15_640_JUSTAS]" observed="7.96 kJ/mol"
macromolecule_sequence="SAGGSAGGSAGGKHKIPITNVHVSPPNGYIHVTIRFPGDGKPIEIHFPVPPGEPITIEISAGGSAGGSAGGS [r10_940_TrROS]" observed="9.54 kJ/mol"
macromolecule_sequence="SAGGAGDQPVVIVATGSDGSPRVFPFKTKEPFKVTVNFPDEKRVFTVPADEPFVFDAPDGDILLDASSAGGS [r16_456_TrMRF]" observed="-0.963 kJ/mol"
macromolecule_sequence="SAGMEITTVTLPDGTKLITITLPVPGGPSITADVPYDPATGKVTLLKITGEDPALEALAKEAVEKLKKESAG [r5_266_JUSTAS]" observed="2.84 kJ/mol"
macromolecule_sequence="SAGGIRIKPGQILVIDIERPTGNERKIIIPMDDPEEVIEQLGFPPENFRIKDIEVVPMPPEQAKDFLESAGG [r13_850_TrROS]" observed="-0.375 kJ/mol"
macromolecule_sequence="SAGGSAGGSAGGDPDDKPPKIEWKPIEYSFYLPNGWMISDEIWVFPDNGAILISIEIMPSAGGSAGGSAGGS [r10_881_TrROS]" observed="10.4 kJ/mol"
macromolecule_sequence="SAGKKLFIKVKIRVKKKVKLKDGKTVEKEKELTLLIEAESEEEALEAAKKLAEELGLEIEKVEIFKAPSAGG [r19_176_TrROS_Hall]" observed="10.1 kJ/mol"
macromolecule_sequence="SAGGMITEKVEKIDDGEIIKLTANLSDPSPVVAWLKATGKNVKLVEIKPTTDPETGNTTVNATFLLPSAGGS [r16_699_JUSTAS]" observed="0.457 kJ/mol"
macromolecule_sequence="SAGGSAGGSAGDNFKIKIESFNIMRLPDGYVMISIKIEITVGDKPVEITIMIIIPPGAPISAGGSAGGSAGG [r17_352_TrROS]" observed="16.9 kJ/mol"
macromolecule_sequence="SAGGSAGGMIPVKTTETTTLPDGSTVVTESLTIIDPTSNTSTTTTLKTTIINTSTGTTIPPSSLSAGGSAGG [r6_866_JUSTAS]" observed="5.76 kJ/mol"
